- Test system: KM-20L2
- Protocol Notes: NCI tumour cell line growth inhibition, 48 h
Calls of active or inactive are those of the source. Cut-off read from the data, not from the text of the source: active = GI50 up to about 1.1 µM and inactive = higher.
Listed here are compounds together with their documented GI50.

[
  {
    "Compound": "CCOC(=O)C(N)CSC(=O)NC (centres undefined)",
    "GI50": "171 µM (inactive)"
  }
]

Provide the reported GI50 (system: KM-20L2) for C/C(CC(=O)Nc1cccc(C)c1C)=N\NC(N)=S
> 100 µM (inactive)

Provide the reported GI50 (system: KM-20L2) for COC(=O)c1cccc2cccc(C(=O)Nc3ccc(Cl)cc3)c12
> 24.2 µM (inactive)

Provide the reported GI50 (system: KM-20L2) for O=c1[nH]c(-c2ccc(-c3nc4cc([N+](=O)[O-])ccc4c(=O)[nH]3)cc2)nc2cc([N+](=O)[O-])ccc12
> 100 µM (inactive)

Provide the reported GI50 (system: KM-20L2) for O=C(Nc1ccccc1C(=O)NC(=O)c1ccccc1NC(=O)c1ccccc1)c1ccccc1
3.15 µM (inactive)

* * *

- Tested on: UO-31
- Protocol Notes: NCI tumour cell line growth inhibition, 48 h
The source made the active and inactive calls. Rule as the data show it: active = GI50 up to about 1.1 µM and inactive = higher.
Listed here are compounds together with their documented GI50.

[
  {
    "Compound": "COC(=O)C1CCC(=O)N1/C(C)=N/NC(=O)Nc1ccc(Cl)c(Cl)c1 (centres undefined)",
    "Experimental System": "UO-31",
    "GI50": "> 100 µM (inactive)"
  },
  {
    "Compound": "O=c1oc2ccccc2c(Nc2ccc3c(c2)S(=O)(=O)c2ccccc2O3)c1[N+](=O)[O-]",
    "Experimental System": "UO-31",
    "GI50": "33.4 µM (inactive)"
  },
  {
    "Compound": "O=S(=O)(O)c1ccc(-c2nnc(-c3ccccn3)nc2-c2ccc(S(=O)(=O)O)o2)o1",
    "Experimental System": "UO-31",
    "GI50": "> 100 µM (inactive)"
  }
]

// below: GI50 requested for another compound
In one line, give reported GI50 of the entry N#C/C(=C/c1cccc(Oc2ccccc2)c1)c1ccccc1 .
> 100 µM (inactive)

* * *

- System: CAKI-1
- Protocol Notes: NCI tumour cell line growth inhibition, 48 h
Activity calls are given as the source filed them. Cut-off read from the data, not from the text of the source: active = GI50 up to about 1.1 µM and inactive = higher. Where a SMILES comes first, the peptide text is derived from it. [ ]: non-standard residue; d: D form. The star is where a group is joined. ξ: configuration not given here. ξD = NC(CC(=O)O)C(=O)O; Ac3c = NC1(C(=O)O)CC1; Boc = CC(C)(C)OC(=O)*; OBn = c1ccc(CO*)cc1
In this exercise, the only acceptable responses are active, inactive

The following compounds have reported results that may help.
[
  {
    "Compound": "Cc1ccccc1-n1c(CCl)nc2ccc(Br)cc2c1=O",
    "Experimental System": "CAKI-1",
    "Group": "inactive"
  },
  {
    "Compound": "C=C1CC2OC(=O)C(=C)C2C(O)C2C(=C)CCC12 (stereo unspecified)",
    "Experimental System": "CAKI-1",
    "Group": "inactive"
  },
  {
    "Compound": "CC(=O)OCC1OC(N2C(c3ccccc3)=CC(c3cccs3)C(C#N)=C2S)C(OC(C)=O)C(OC(C)=O)C1OC(C)=O (stereo unspecified)",
    "Experimental System": "CAKI-1",
    "Group": "inactive"
  },
  {
    "Compound": "N=C(N)N/N=C/c1c(-c2ccc([N+](=O)[O-])cc2)nc2sc(Cl)cn12",
    "Experimental System": "CAKI-1",
    "Group": "inactive"
  },
  {
    "Compound": "COC(=O)C1(NC(=O)C(CC(=O)OCc2ccccc2)NC(=O)OC(C)(C)C)CC1 (stereo unspecified) (Boc-[ξD](OBn)-[Ac3c]-OMe)",
    "Experimental System": "CAKI-1",
    "Group": "inactive"
  },
  {
    "Compound": "CC1(C)O[C@@H]2C[C@H]3[C@@H]4C[C@H](F)C5=CC(=O)C=C[C@]5(C)[C@@]4(F)[C@@H](O)C[C@]3(C)[C@]2(C(=O)CO)O1 [FLUOCINOLONE ACETONIDE]",
    "Experimental System": "CAKI-1",
    "Group": "inactive"
  }
]

Name the outcome recorded for COc1ccc(/C=C2\N=C3Sc4c([nH]cnc4=O)N3C2=O)cc1 in the assay.
inactive

Name the outcome recorded for Cc1cccc(Nc2nc(NNC(=O)Cc3ccccc3)nc(NNC(=O)c3ccncc3)n2)c1 in the assay.
inactive

Name the outcome recorded for CC1(C)O[C@@H](CCl)C[C@@H](C#N)O1 in the assay.
inactive

Name the outcome recorded for O=c1cc(-c2ccccc2)[nH]c2cc(F)c(F)cc12 in the assay.
inactive

Name the outcome recorded for O=[N+]([O-])c1ccc2nc3ccc([N+](=O)[O-])cn3c2c1 in the assay.
inactive

Name the outcome recorded for O=C(OCc1ccccc1)N1N=NC2C1C1CC(OCc3ccccc3)(OCc3ccccc3)C2O1 (stereo unspecified) in the assay.
inactive

Name the outcome recorded for COc1ccc(/C=N/Nc2nc(-c3cc4oc(=O)n(C)c4cc3Cl)cs2)cc1OC in the assay.
inactive

Name the outcome recorded for CNC(=O)C1CCCN1C(=O)C(Cc1c[nH]cn1)NC(=O)C1CCC(=O)N1 (stereo unspecified) in the assay.
inactive

Name the outcome recorded for O=C1NC(c2cccc3ccccc23)Nc2ccc(Cl)cc21 (stereo unspecified) in the assay.
active

Name the outcome recorded for O=C(CSCC(=O)N/N=C/c1ccc2c(c1)OCO2)N/N=C/c1ccc2c(c1)OCO2 in the assay.
inactive
